Tested on: MKN45 cells
measurementNotes: MKN45 cell proliferation assay (Cell-Titer-Glo, 120 hr)
Assay type: cell-based
testParameters: Homo sapiens, MKN-45, 120 h, read-out: MKN45 Cell Prolif. 120 hr EC50
Excerpt: MKN45 cells were obtained from Celgene internal cell banks and cultured in RPMI complete media (RPMI-1640, 1× Penicillin/Streptomycin, 1× glutamine, 1× Sodium Pyruvate, Non-essential Amino Acids, 10% Fetal Bovine serum, all component from Thermo-Fisher). […] Luminescence data was processed per plate by subtracting reagent-only “blank” well luminescence from all measured values and calculating a percent of DMSO control value for each treatment well. […]
quantityKind: EC50 (nM)

compound	EC50 [nM]
COC[C@@H]1CN(Cc2cc(F)c3nc(C4CCCO4)ncc3c2)C[C@H]1Oc1ccc2c(c1)CN([C@H]1CCC(=O)NC1=O)C2=O (mixture of isomers)	11
COC[C@@H]1CN(Cc2cc3ccc(N4CCN(C(C)=O)C5(CC5)C4)cc3cn2)C[C@H]1Oc1ccc2c(c1)CN([C@H]1CCC(=O)NC1=O)C2=O	1
O=C1CC[C@H](N2Cc3cc(O[C@H]4CCN(Cc5cc(F)c6nc(N7C[C@@H]8CCO[C@@H]8C7)ccc6c5)C4)ccc3C2=O)C(=O)N1 (single isomer, unassigned)	5
O=C1CC[C@H](N2Cc3cc(O[C@H]4CCN(Cc5ccc6nc([C@H]7CCO[C@@]8(CCOC8)C7)ccc6c5)C4)ccc3C2=O)C(=O)N1 (relative stereo)	2
COC[C@@H]1CN(Cc2cc(F)c3nc(C(C)(C)O)ccc3c2)C[C@H]1Oc1ccc2c(c1)CN([C@H]1CCC(=O)NC1=O)C2=O	2
COC[C@@H]1CN(Cc2cc(F)c3nc(C4(O)CCOCC4)ncc3c2)C[C@H]1Oc1ccc2c(c1)CN([C@H]1CCC(=O)NC1=O)C2=O	7

[a] COC[C@@H]1CN(Cc2cc(F)c3nc(C4CN(C(C)=O)C4)ncc3c2)C[C@H]1Oc1ccc2c(c1)CN([C@H]1CCC(=O)NC1=O)C2=O
[b] O=C1CC[C@H](N2Cc3cc(O[C@@H]4CN(Cc5cc(F)c6nc(C7CCOCC7)ccc6c5)C[C@H]4c4ccccc4)ccc3C2=O)C(=O)N1 (relative stereo)
Select the item with the higher value of EC50 from the options a and b listed. Pick one; state its label.
a

[A] COC[C@@H]1CN(Cc2cc3ccc(C4CCC(O)CC4)cc3cn2)C[C@H]1Oc1ccc2c(c1)CN([C@H]1CCC(=O)NC1=O)C2=O (relative stereo)
[B] COC[C@@H]1CN(Cc2ccc3nc(N4CCN(C(C)=O)C5(COC5)C4)ccc3c2)C[C@H]1Oc1ccc2c(c1)CN([C@H]1CCC(=O)NC1=O)C2=O
Hi, I'm comparing two records. Which one has the lower EC50, A or B ? Pick one; state its label.
A

====

System: MKN45 cells
measurementNotes: MKN45 cell proliferation assay (Cell-Titer-Glo, 120 hr)
Type: cell-based
testParameters: Homo sapiens, MKN-45, 120 h, read-out: MKN45 Cell Prolif. 120 hr EC50
pEC50: −log10 of the molar value.
quantityKind: pEC50

[P] COC[C@@H]1CN(Cc2cc(F)c3ncc(N4CCOCC4)cc3c2)C[C@H]1Oc1ccc2c(c1)CN([C@H]1CCC(=O)NC1=O)C2=O
[Q] COC(C)(C)[C@@H]1CN(Cc2ccc3nc(C4CCOCC4)ccc3c2)C[C@H]1Oc1ccc2c(c1)CN([C@H]1CCC(=O)NC1=O)C2=O (racemic)
[R] COC[C@@H]1CN(Cc2cc(F)c3nc(N4CCN(C(C)=O)C5(COC5)C4)ncc3c2)C[C@H]1Oc1ccc2c(c1)CN([C@H]1CCC(=O)NC1=O)C2=O
Lab note: rank above entries, pEC50 ascending. Answer format: the labels, in the requested order.
Q, R, P
(Q: 6.46, R: 8.70, P: 9.00)

====

System: MKN45 cells
measurementNotes: MKN45 cell proliferation assay (Cell-Titer-Glo, 120 hr)
Assay type: cell-based
testParameters: Homo sapiens, MKN-45, 120 h, read-out: MKN45 Cell Prolif. 120 hr EC50
pEC50: −log10 of the molar value.
quantityKind: pEC50

compound	pEC50
COC[C@@H]1CN(Cc2cc(F)c3nc(N4CCC(O)CC4)ccc3c2)C[C@H]1Oc1ccc2c(c1)CN([C@H]1CCC(=O)NC1=O)C2=O [Example 64]	8.70
COC[C@@H]1CN(Cc2cc(F)c3nc(N4CCN(C5COC5)CC4)ncc3c2)C[C@H]1Oc1ccc2c(c1)CN([C@H]1CCC(=O)NC1=O)C2=O [Example 141]	9.00
COC[C@@H]1CN(Cc2ccc3nc(C4CCOC(C)(C)C4)ccc3c2)C[C@H]1Oc1ccc2c(c1)CN([C@H]1CCC(=O)NC1=O)C2=O (stereo partly drawn) [Example 84]	9.00
COC[C@@H]1CN(Cc2cc(F)c3nc(C4CC(C)OC(C)C4)ccc3c2)C[C@H]1Oc1ccc2c(c1)CN([C@H]1CCC(=O)NC1=O)C2=O (relative stereo) [Example 52]	9.00

[P] O=C1CC[C@H](N2Cc3cc(O[C@@H]4CN(Cc5ccc6nc(N7C[C@@H]8CCO[C@@H]8C7)ccc6c5)CC4(F)F)ccc3C2=O)C(=O)N1 (single isomer, unassigned) [Example 17]
[Q] COC[C@@H]1CN(Cc2cc(F)c3nc(C4CN(CC(F)(F)F)C4)ccc3c2)C[C@H]1Oc1ccc2c(c1)CN([C@H]1CCC(=O)NC1=O)C2=O [Example 37]
Select the item with the higher value of pEC50 from the options P and Q listed. Pick one; state its label.
Q

====

testedSystem: WEE1 (Homo sapiens, UniProt P30291+Q96SW2)
Construct: C-terminal ePL-tagged (DiscoverX, Fremont, CA) full-length WEE1 expression construct; expressed in transfected cells; host or cells: LentiX-HEK293T (Invitrogen), lentivirally transduced; the cells also over-express GSPT1-GN
Sequence (P30291 whole entry): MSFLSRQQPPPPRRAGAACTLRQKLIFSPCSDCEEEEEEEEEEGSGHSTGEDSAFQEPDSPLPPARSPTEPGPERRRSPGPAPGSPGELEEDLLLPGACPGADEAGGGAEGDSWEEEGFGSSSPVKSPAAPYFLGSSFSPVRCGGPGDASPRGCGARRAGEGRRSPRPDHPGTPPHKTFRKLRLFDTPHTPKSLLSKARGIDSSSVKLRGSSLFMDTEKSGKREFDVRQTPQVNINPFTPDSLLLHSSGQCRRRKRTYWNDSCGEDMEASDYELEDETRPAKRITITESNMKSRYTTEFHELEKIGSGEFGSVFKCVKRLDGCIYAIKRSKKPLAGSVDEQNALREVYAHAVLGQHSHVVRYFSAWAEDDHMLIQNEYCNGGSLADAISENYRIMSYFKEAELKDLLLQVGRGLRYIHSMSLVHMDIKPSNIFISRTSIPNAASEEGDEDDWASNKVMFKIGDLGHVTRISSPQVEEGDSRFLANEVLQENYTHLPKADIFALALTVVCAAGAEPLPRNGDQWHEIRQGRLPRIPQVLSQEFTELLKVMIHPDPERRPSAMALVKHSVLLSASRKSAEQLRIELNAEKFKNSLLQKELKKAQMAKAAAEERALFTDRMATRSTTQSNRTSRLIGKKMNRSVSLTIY
Sequence (Q96SW2 whole entry): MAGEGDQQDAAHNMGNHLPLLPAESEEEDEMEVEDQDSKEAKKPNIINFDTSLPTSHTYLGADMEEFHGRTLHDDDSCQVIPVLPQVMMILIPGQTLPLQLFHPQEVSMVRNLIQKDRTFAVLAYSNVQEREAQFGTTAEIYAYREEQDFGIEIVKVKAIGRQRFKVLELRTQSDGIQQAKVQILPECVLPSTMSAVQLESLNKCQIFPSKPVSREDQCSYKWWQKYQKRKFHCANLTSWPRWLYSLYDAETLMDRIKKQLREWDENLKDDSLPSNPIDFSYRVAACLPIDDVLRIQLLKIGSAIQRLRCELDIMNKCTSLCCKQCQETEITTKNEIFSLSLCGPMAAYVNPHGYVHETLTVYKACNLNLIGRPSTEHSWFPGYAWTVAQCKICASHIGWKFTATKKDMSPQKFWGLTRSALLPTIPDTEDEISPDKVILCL
Sequence (Q16531 whole entry partner): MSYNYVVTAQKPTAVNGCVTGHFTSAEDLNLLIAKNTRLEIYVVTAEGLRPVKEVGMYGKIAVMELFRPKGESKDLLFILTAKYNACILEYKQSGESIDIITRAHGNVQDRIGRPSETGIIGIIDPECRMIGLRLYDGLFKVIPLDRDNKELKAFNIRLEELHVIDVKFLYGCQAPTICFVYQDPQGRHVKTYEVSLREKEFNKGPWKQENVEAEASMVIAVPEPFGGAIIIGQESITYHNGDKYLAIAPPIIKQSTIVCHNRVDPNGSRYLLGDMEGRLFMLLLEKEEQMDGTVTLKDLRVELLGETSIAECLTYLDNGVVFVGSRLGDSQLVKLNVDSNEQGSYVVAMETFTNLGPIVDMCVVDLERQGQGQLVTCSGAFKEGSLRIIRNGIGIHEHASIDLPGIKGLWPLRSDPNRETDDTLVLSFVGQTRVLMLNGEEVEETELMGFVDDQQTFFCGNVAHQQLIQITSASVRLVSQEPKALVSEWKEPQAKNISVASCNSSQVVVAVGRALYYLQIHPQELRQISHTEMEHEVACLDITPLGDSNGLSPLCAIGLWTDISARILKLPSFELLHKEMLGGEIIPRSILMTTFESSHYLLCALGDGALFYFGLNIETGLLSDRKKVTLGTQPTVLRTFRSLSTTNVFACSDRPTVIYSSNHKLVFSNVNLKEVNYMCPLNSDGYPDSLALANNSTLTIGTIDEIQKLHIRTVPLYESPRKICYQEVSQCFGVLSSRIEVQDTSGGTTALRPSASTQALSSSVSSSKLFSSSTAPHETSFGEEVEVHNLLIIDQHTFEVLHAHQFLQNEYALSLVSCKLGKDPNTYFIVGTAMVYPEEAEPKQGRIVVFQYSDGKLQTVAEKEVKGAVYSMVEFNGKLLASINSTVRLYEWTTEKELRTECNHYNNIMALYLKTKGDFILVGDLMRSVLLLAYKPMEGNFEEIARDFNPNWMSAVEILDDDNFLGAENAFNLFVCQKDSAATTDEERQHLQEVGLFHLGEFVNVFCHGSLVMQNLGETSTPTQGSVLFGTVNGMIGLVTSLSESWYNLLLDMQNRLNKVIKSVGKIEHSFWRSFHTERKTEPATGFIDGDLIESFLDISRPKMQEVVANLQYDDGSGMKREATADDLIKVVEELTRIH
measurementNotes: WEE1-ePL degradation assay (293T-LentiX, InCELL Hunter luminescence, 4 hr)
Type: cell-based
testParameters: LentiX-HEK293T cells expressing WEE1-ePL, 4 hr incubation; read-out: 293T-LentiX WEE1-ePL Degradation 4 hr EC50
Excerpt: To generate LentiX-WEE1-ePL-GSPT1-ND cells for the WEE1 degradation assay, LentiX-HEK293T (Invitrogen) were tranduced by lentivirus with a C-terminal ePL-tagged (DiscoverX, Fremont, CA) full-length WEE1 expression construct. A separate lentiviral construct was introduced to over-express a mutated form of GSPT1 (NP_002085), termed GSPT1-GN, which contains a G575N mutation and is further truncated in the first 158 amino acids. GSPT1-GN is functional but not degradable by Cereblon. […]
quantityKind: DC50 (nM)

Consider the worked cases shown below.
compound	unitsText	value
CC(C)C[C@@H]1CN(Cc2cc(F)c3nc(C4CCOCC4)ccc3c2)C[C@H]1Oc1ccc2c(c1)CN([C@H]1CCC(=O)NC1=O)C2=O (relative stereo)	nM	6
O=C1CC[C@H](N2Cc3cc(O[C@H]4CN(Cc5cc(F)c6nc(C7CCOCC7)ccc6c5)C[C@@H]4C4CCCC4)ccc3C2=O)C(=O)N1 (relative stereo)	nM	1
COC[C@@H]1CN(Cc2ccc3nc(C4CCOCC4)ccc3n2)C[C@H]1Oc1ccc2c(c1)CN([C@H]1CCC(=O)NC1=O)C2=O	nM	1
COC[C@@H]1CN(Cc2cnc3nc(C4CCOCC4)ccc3c2)C[C@H]1Oc1ccc2c(c1)CN([C@H]1CCC(=O)NC1=O)C2=O	nM	2
CN1CC[C@]2(C[C@@H](c3ccc4cc(CN5CC[C@H](Oc6ccc7c(c6)CN([C@H]6CCC(=O)NC6=O)C7=O)C5)ccc4n3)CO2)C1 (single isomer, unassigned)	nM	14

[1] COC[C@@H]1CN(Cc2cc(F)c3nc(N4C[C@@H]5CCO[C@@H]5C4)ncc3c2)C[C@H]1Oc1ccc2c(c1)CN([C@H]1CCC(=O)NC1=O)C2=O (single isomer, unassigned)
[2] COC[C@@H]1CN(Cc2ccc3nc(N4C[C@@H]5CCO[C@@H]5C4)ncc3c2)C[C@H]1Oc1ccc2c(c1)CN([C@H]1CCC(=O)NC1=O)C2=O (single isomer, unassigned)
Hi, I'm comparing two records. Which one has the lower DC50, 1 or 2 ? Pick one; state its label.
1

====

testedSystem: WEE1 (Homo sapiens, UniProt P30291+Q96SW2)
Construct: C-terminal ePL-tagged (DiscoverX, Fremont, CA) full-length WEE1 expression construct; expressed in transfected cells; host or cells: LentiX-HEK293T (Invitrogen), lentivirally transduced; the cells also over-express GSPT1-GN
measurementNotes: WEE1-ePL degradation assay (293T-LentiX, InCELL Hunter luminescence, 4 hr)
Format: cell-based
testParameters: lower limit of fit, % of DMSO control signal remaining; 4 hr
quantityKind: 293T-LentiX WEE1-ePL Degradation 4 hr YMin (%)

molecule	value
COC[C@@H]1CN(Cc2cc(F)c3nc(C(C)(C)O)ncc3c2)C[C@H]1Oc1ccc2c(c1)CN([C@H]1CCC(=O)NC1=O)C2=O	30.3
COC[C@@H]1CN(Cc2cc(F)c3nc(N4CCC(OC)C4)ccc3c2)C[C@H]1Oc1ccc2c(c1)CN([C@H]1CCC(=O)NC1=O)C2=O (single isomer, unassigned) [Example 97]	29.8
COC[C@@H]1CN(Cc2cc(F)c3nc(C4CCCCO4)ccc3c2)C[C@H]1Oc1ccc2c(c1)CN([C@H]1CCC(=O)NC1=O)C2=O (relative stereo)	27.7
COC[C@@H]1CN(Cc2cc(F)c3nc(N4CCC45CCOCC5)ncc3c2)C[C@H]1Oc1ccc2c(c1)CN([C@H]1CCC(=O)NC1=O)C2=O	28.9
O=C1CC[C@H](N2Cc3cc(O[C@H]4CN(Cc5cc(F)c6nc(C7CCOCC7)ccc6c5)C[C@@H]4c4ccncc4)ccc3C2=O)C(=O)N1 (relative stereo)	24.4
